Target: T1, orthogonal hCD122 receptor (hoRb), hCD122 with H133D and Y134F (human, UniProt P14784 27-550); also: reference of the scale not given here
T1 sequence: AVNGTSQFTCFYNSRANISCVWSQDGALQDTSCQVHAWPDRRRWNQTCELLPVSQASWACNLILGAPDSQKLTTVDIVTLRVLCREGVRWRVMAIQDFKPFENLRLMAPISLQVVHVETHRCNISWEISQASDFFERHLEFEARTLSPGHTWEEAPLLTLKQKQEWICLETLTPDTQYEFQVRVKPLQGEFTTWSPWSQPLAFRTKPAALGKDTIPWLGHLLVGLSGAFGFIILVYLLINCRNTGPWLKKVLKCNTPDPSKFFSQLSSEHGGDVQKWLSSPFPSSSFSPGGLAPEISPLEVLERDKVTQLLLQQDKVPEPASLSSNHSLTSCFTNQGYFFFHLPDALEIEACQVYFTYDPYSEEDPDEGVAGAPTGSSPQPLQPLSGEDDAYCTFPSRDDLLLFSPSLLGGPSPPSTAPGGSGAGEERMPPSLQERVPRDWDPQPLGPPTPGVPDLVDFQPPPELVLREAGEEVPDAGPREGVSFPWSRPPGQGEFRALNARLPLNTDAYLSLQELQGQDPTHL
Assay: cell-based or functional assay
measure name: Relative Proliferation Fold Change NKL 1:10

- binder: "L18K, SQVLKA (ligand) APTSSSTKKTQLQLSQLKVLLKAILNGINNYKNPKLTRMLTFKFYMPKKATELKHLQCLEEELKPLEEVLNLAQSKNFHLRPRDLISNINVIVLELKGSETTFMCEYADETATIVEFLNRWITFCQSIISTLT"
  assay value: "1.21 fold"
- binder: "D109C, SQVLKA (ligand) APTSSSTKKTQLQLSQLLVLLKAILNGINNYKNPKLTRMLTFKFYMPKKATELKHLQCLEEELKPLEEVLNLAQSKNFHLRPRDLISNINVIVLELKGSETTFMCEYACETATIVEFLNRWITFCQSIISTLT"
  assay value: "3.22 fold"
- binder: "L80V, SQVLKA (ligand) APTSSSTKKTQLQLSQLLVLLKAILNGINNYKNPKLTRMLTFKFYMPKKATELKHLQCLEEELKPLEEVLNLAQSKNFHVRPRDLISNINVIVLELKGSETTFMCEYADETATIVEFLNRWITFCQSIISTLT"
  assay value: "3.13 fold"
- binder: "ΔM23, SQVLK- (ligand) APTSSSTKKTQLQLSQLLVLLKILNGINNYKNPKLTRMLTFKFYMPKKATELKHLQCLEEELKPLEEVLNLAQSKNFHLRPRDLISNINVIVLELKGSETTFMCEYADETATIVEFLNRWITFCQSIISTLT"
  assay value: "1.43 fold"
- binder: "SQVLGA (ligand) APTSSSTKKTQLQLSQLLVLLGAILNGINNYKNPKLTRMLTFKFYMPKKATELKHLQCLEEELKPLEEVLNLAQSKNFHLRPRDLISNINVIVLELKGSETTFMCEYADETATIVEFLNRWITFCQSIISTLT"
  assay value: "0.83 fold"
- binder: "SQVLYA, E116G (ligand) APTSSSTKKTQLQLSQLLVLLYAILNGINNYKNPKLTRMLTFKFYMPKKATELKHLQCLEEELKPLEEVLNLAQSKNFHLRPRDLISNINVIVLELKGSETTFMCEYADETATIVEFLNRWITFCQSIISTLT"
  assay value: "0.83 fold"
- binder: "SQVLKT (ligand) APTSSSTKKTQLQLSQLLVLLKTILNGINNYKNPKLTRMLTFKFYMPKKATELKHLQCLEEELKPLEEVLNLAQSKNFHLRPRDLISNINVIVLELKGSETTFMCEYADETATIVEFLNRWITFCQSIISTLT"
  assay value: "4.52 fold"
